system: liver damage by CCl4; test: Antihepatotoxic effect: duration of hexobarbital sleep of the rat after liver damage by CCl4; conditions: Rattus norvegicus, po, read-out: ED50 antihepatotoxic effect (shortens hexobarbital narcosis by 50%)
Measured log10 ED50 values are reported for all entries that follow.
Transform log10 | Measure ED50 | Unit mg/kg

compound | log10 ED50
O=C(O)CCCCN(C(=O)c1ccc(Cl)cc1)c1ccccc1-c1ccccc1 | 1.08
O=C(O)CCCN(C(=O)c1cccc(C(F)(F)F)c1)c1ccccc1-c1ccccc1 | 1.48
CC(=O)N(CCCC(=O)O)c1ccccc1-c1ccccc1 | 1.18

log10 ED50 reported for this compound CC(=O)N(CCCC(=O)O)c1cccc2ccccc12 [Serial No. 39, 4-[N-(α-naphthyl)acetamido]butyric acid] : 1.70

log10 ED50 reported for this compound COc1ccc2cccc(N(CCCC(=O)O)C(=O)c3ccc(Cl)cc3)c2c1 : 1.20

log10 ED50 reported for this compound CC=CC(=O)N(CCCC(=O)O)c1ccccc1-c1ccccc1 : 0.45

log10 ED50 reported for this compound O=C(O)CCCN(C(=O)c1ccc(Cl)cc1)c1ccccc1-c1ccccc1 : 0.54

log10 ED50 reported for this compound O=C(O)CCCCCN(C(=O)c1ccc(Cl)cc1)c1ccccc1-c1ccccc1 : 1.15

###

experiment: Influence on pancreatic secretion of the narcotized rat; assay type: in vivo, rat (male Sprague-Dawley); conditions: in vivo; LD50 mouse i.p. / ED50 rat i.d.; Table VII; read-out: TQ [LD50/ED50], pancreatic secretion
quantity.name: selectivity ratio

For orientation, consider the following solved cases.
structure | quantity.name | result.value
O=C(O)CCCCCN(C(=O)c1ccc(Cl)cc1Cl)c1ccccc1-c1ccccc1 | selectivity ratio | ~147
COc1ccc(Cl)cc1C(=O)N(CCCCCC(=O)O)c1ccccc1-c1ccccc1 | selectivity ratio | > 200
CC(=O)N(CCCC(=O)O)c1ccccc1-c1ccccc1 | selectivity ratio | ~375

Let us examine a further case.
selectivity ratio reported for this compound O=C(O)CCCN(C(=O)c1ccc(Cl)cc1)c1ccc(C2CCCCC2)cc1 : ~100

###

Measured selectivity ratio values are reported for all entries that follow.
test: Influence on pancreatic secretion of the narcotized rat; assay type: in vivo, rat (male Sprague-Dawley); details: in vivo; LD50 mouse i.p. / ED50 rat i.d.; Table X; read-out: TQ LD50/ED50, pancreatic secretion

For orientation, consider the following solved cases.
molecule | selectivity ratio
CC(CCC(=O)O)N(C(=O)c1ccc(Cl)cc1)c1cccc2ccccc12 (centres unmarked) [Serial No. 45] | ~180
O=C(O)CCCN(C(=O)c1cccc(C(F)(F)F)c1)c1cccc2ccccc12 [compound 42] | > 160
CC(=O)N(CCCC(=O)O)C1CCCc2ccccc21 (centres unmarked) [compound 49] | ≥ 40
O=C(O)CCCCCN(C(=O)c1ccc(Cl)cc1)c1cccc2ccccc12 [compound 48] | ~160

Let us examine a further case.
selectivity ratio reported for this molecule CC(=O)N(CCCC(=O)O)c1cccc2ccccc12 [Serial No. 39, 4-[N-(α-naphthyl)acetamido]butyric acid] : ~500

###

Measured selectivity ratio values are reported for all entries that follow.
assay: Antihepatotoxic effect: duration of hexobarbital sleep of the rat after liver damage by CCl4; conditions: rat, in vivo, TQ LD50/ED25, antihepatotoxic effect, LD50 mouse i.p. / ED25 rat p.o.; Table V

compound | result.value
O=C(O)CCCN(C(=O)c1ccc(Cl)cc1)c1ccc(C2CCCCC2)cc1 [Serial No. 37] | ≥ 15
COc1ccc(Cl)cc1C(=O)N(CCCCCC(=O)O)c1ccccc1-c1ccccc1 [Serial No. 30] | > 20
O=C(O)CCCN(C(=O)c1ccc(Cl)cc1)c1ccccc1-c1ccccc1 [Serial No. 31] | > 180
CC(=O)N(CCCC(=O)O)c1ccccc1-c1ccccc1 [Serial No. 22] | > 250

Let us examine a further case.
selectivity ratio reported for this compound O=C(O)CCCCCN(C(=O)c1ccc(Cl)cc1)c1ccccc1-c1ccccc1 [Serial No. 24] : ~14.4

###

Measured selectivity ratio values are reported for all entries that follow.
experiment: Influence on pancreatic secretion of the narcotized rat; type: in vivo, rat (male Sprague-Dawley); conditions: in vivo; LD50 mouse i.p. / ED50 rat i.d.; Table I; read-out: TQ (LD50/ED50), pancreatic secretion

molecule | result.value
CC(=O)N(CCCC(=O)O)C(c1ccccc1)c1ccccc1 [Serial No. 14, N-acetyl-4-benzhydrylaminobutyric acid] | ~220
O=C(O)CCCN(C(=O)c1ccc(Cl)cc1)C(c1ccccc1)c1ccccc1 [Serial No. 12] | ~2500

selectivity ratio reported for this molecule CC(c1ccccc1)N(CCCC(=O)O)C(=O)c1ccc(Cl)cc1 (racemic) [Serial No. 10] : ~60

selectivity ratio reported for this molecule O=C(O)CCCN(C(=O)c1ccc(Cl)cc1)C(Cc1ccccc1)c1ccccc1 (stereo not drawn) [Serial No. 17] : ~160

selectivity ratio reported for this molecule C#CC1(N(CCCC(=O)O)C(C)=O)CCCCC1 [Serial No. 8] : > 100

selectivity ratio reported for this molecule CC(C)(C)CC(C)(C)N(CCCC(=O)O)C(=O)c1ccc(F)cc1 [Serial No. 16] : ~40
